Test system: MS2 coat protein
test summary: apparent KD of MS2 coat protein, switch ON state; designed switch direction (-1 OFF switch, 1 ON switch): -1; higher = weaker reporter binding
condition details: FMN input: 0 or 200 uM; Eterna round: R93 (includes R88 designs)
Short version: apparent KD of MS2 coat protein at least 30 nM is 1, less is -1.

entry sequence	class
AACUGGUGAGGAUAUCUGGAUAGGAAAAAGAAAACCUAUCCAGAGAAGGCACAUGAGGAUCACCCAUGUAAAAA [JL cataway mod 9]	1
AAGAAGUGAGGAUAUGCUGCUCGUCACUUGCGUGAUGAGUAGCAGAAGGCACAUGAGGAUCACCCAUGUAAAAA [Mat - Exaclusion 4 - Eli mod - D2]	1
UACGUAUGAGGAUAUACAAACAGAAAAAUCAGACGUAAGUGACAUGAGGAUCACCCAUGUAGAAGGCAUAUGCA [JR_Exc002_Sub906]	-1
AACUGACAUGAGGAUCACCCAUGUCAGGAUAUGACUUGACGAAAAAAAACACGUCAUGUCAGAAGGGACAUGAA [Design 88: Sub-opt YB]	-1
AAAAACUGAGGAUAUACAUGAGGAUCACCCAUGUAAAAAAAAAAAAAGGGAAAAAAAAGUAGAAGGCAGAAAAA [Nebiriau II]	-1
GAAAAGUCAGGAUAUGUGGAAAAAAUAAAAAAAAUAAAAACACAGAAGGGACAUGAGGAUCACCCAUGUAAAAG [Mat - Exclusion 4 - Mayanna - D141]	1
AACAGUACAGGAUAUACAUGAGGAUCACCCAUGUGACAGAAAUAAAACAAAAAUAAAAGUAGAAGGGUACUGGA [Ruby 42]	1
AGAAAGCGAGGAUAUACUAAGAAACCUCAAAGAAAGAAGAAACAUGAGGAUCACCCAUGUAGAAGGCGCAAAGA [JR_Exc002_Sub002]	-1
AAAAGGUGAGGAUAUAGGAAAAUAAAAUAAAAUAAAAUAAACUAGAAGGCACAUGAGGAUCACCCAUGUAAUAA [LROPPY Exclusion 4 - v03_deltaG=3.54 break up the As]	-1
AAGAACCAAGGAUAUACAUGAGGAUCACCCAUGUAAAAGAAAGAAGGGAAAGAGAAAAGUAGAAGGUGGAAGAA [Djedkaure Shebitku]	-1
AGCAAGUCAGGAUAUACGAACAAGACAAAAGACGUGAAGGGACAUGAGGAUCACCCAUGUAGAAGGGACAAGCA [74%, Web mod - With 4 less U's]	1
AAAAAACAUGAGGAUCACCCAUGUGAGGAUAUAGGAAAAAAAAAAAAAAAAAAAAAAACUAGAAGGCACAAAAA [Gess I got it^^]	1
AGUCGGCGAGGAUAUACAUGAGGAUCACCCAUGUGAGAGAAAAAAGUGAGCAAGAAAUGUAGAAGGCGCUGACA [JL Lego Mod 3]	1
AAAGAUGCAGGAUAUACAUGAGGAUCACCCAUGUUAGACCUGAAAAGGGAAAAAGAAAGUAGAAGGGCAUAAAA [Ex 3 May 32]	-1
UAAAAACAUGAGGAUCACCCAUGUAAGGAUAUGCUGAAAAACACGGAAAAAACGUGCAGCAGAAGGUACAAAAU [Mat - Exclusion 1 - Eli mod - D98]	-1
AAAAAGGGAGGAUAUACAUGAGGAUCACCCAUGUGAAAGACGAAAAAGAGUCUAAAGGGUAGAAGGCCCAAAAA [65%, Moding Exclusion3-cac2, 10]	1
AAAAAACAUGAGGAUCACCCAUGUCAGGAUAUACAAAAAUAAAUAAAAAUAAAAUAAAGUAGAAGGGACAAAAA [May 9]	-1
AAAAAGUGAGGAUAUGGUAAAAAAAAAAAAAAAAAAAACCUCCAGAAGGCACAUGAGGAUCACCCAUGUCAAAA [Jolly's Folly 3 - Jieux - Exclusion 4]	1
AAAAGUGGAGGAUAUACAUGAGGAUCACCCAUGUGUAAAAAUAAAUACACAAAAGAAAGUAGAAGGCCACAAAG [Mat - Exclusion 3 - Mayanna mod - D117]	1
AGAAAGUGAGGAUAUACGAAACCAGCCUAAAUGGCUGGAAAGUAGAAGGCACAUGAGGAUCACCCAUGUAAAGA [Ex4 sub 1]	1
AAGAUCAGAGGAUAUACAGAAGGUGAUGAAAACAUCGCCAAACAUGAGGAUCACCCAUGUAGAAGGCUGAUCAA [JL EX2 2]	1
GGUUGGGUAGGAUAUACAUGAGGAUCACCCAUGUGAGAGAAAAAAGUGAGAAAGAAAAGUAGAAGGGCUUGACG [salish99-ex3-67]	1
GGAUGCCUAGGAUAUACAUGAGGAUCACCCAUGUGAGAGAAAAAAGUGAGAAAGAAAAGUAGAAGGAGGUGUCG [salish99-ex3-91]	1
AAAACUGGAGGAUAUACAUGAGGAUCACCCAUGUGUGGAUGAGCUGUGUCGGCGUCAGGUAGAAGGCCACAAAA [Gilly Gone Silly 35 - Jieux - Exclusion 3]	1
